- System: RXF 393 renal
- TEST DESCRIPTION: NCI tumour cell line growth inhibition, 384-well format
Can you tell me TGI for the items I'm about to list?
Numbers only, in µM.

Cc1ccccc1N=Nc1ccc(NC(=O)c2ccnn2C)c(C)c1 : 23.7

Could you report TGI for every entry in the following list?
1. CC(C)(O)CS(=O)(=O)Nc1ccc2c(c1)CCN(C(=O)COc1cccnc1)C2
2. CCc1c(C#N)c(S[C@@H](C(N)=O)c2ccccc2)nc(N(C)C)c1C#N
3. COc1ncc(-c2ccc3nccc(-c4ccnnc4)c3c2)cc1NS(=O)(=O)c1ccc(F)cc1F
4. CC1=C2C[C@H]3[C@@H](CC[C@@H]4CC(NS(C)(=O)=O)CC[C@@]43C)[C@@H]2CC[C@@]2(C1)O[C@@H]1C[C@H](C)CN[C@H]1[C@H]2C (stereo not given in full)

0.0356
6.06
0.0253
9.2
